Below: a set of entries, each annotated with reported percent of complexes.
target: anti-CC49 variable region antibodies in the serum of patient five; experiment: HPLC, 125I-HuCC49 + serum + 5 Tg competitor; fewer complexes = competitor bound
Please reply with the bare figure in % and do not write the unit itself.

A selection of reference data follows.
[
  {
    "Binder": "HuCC49 CDR variant H-2 (antibody, V domains shown) VH: QVQLVQSGAEVVKPGASVKISCKASGYTFTDHAIHWVKQNPGQRLEWIGWINAGNGNTKYSQKFQGKATLTADTSASTAYVELSSLRSEDTAVYFCTRSLNMAYWGQGTLVTVSS VL: DIVMSQSPDSLAVSLGERVTLNCKSSQSLLYSGNQKNYLAWYQQKPGQSPKLLIYWASARESGVPDRFSGSGSGTDFTLTISSVQAEDVAVYYCQQYYSYPLTFGAGTKLELK",
    "Measure Unit": "%",
    "percent of complexes": 36.6
  },
  {
    "Binder": "HuCC49 CDR variant L-3 (antibody, V domains shown) VH: QVQLVQSGAEVVKPGASVKISCKASGYTFTDHAIHWVKQNPGQRLEWIGYFSPGNDDFKYNERFKGKATLTADTSASTAYVELSSLRSEDTAVYFCTRSLNMAYWGQGTLVTVSS VL: DIVMSQSPDSLAVSLGERVTLNCKSSQSLLYSGNQKNYLAWYQQKPGQSPKLLIYWASARESGVPDRFSGSGSGTDFTLTISSVQAEDVAVYYCQQYYSTPYSFGAGTKLELK",
    "Measure Unit": "%",
    "percent of complexes": 46.7
  }
]

Here is the next item to consider.
Query: Please report percent of complexes for the following binder: humanized monoclonal antibody HuCC49 (parental HuCC49) (antibody, V domains shown) VH: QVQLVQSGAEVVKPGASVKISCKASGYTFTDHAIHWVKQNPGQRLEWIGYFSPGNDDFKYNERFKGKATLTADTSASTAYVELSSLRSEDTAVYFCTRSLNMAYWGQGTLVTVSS VL: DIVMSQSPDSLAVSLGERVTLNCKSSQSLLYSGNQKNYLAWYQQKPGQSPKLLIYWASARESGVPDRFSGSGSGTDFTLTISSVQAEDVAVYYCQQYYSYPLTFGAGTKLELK
Reply: 3

Hello, the source for this data is patent US20080050810A1, in case you need it.
